Reference for the values: patent US8772323B2

- system under test: human GPR119 (Homo sapiens (Human), UniProt Q8TDV5)
- Sequence (Q8TDV5 whole entry): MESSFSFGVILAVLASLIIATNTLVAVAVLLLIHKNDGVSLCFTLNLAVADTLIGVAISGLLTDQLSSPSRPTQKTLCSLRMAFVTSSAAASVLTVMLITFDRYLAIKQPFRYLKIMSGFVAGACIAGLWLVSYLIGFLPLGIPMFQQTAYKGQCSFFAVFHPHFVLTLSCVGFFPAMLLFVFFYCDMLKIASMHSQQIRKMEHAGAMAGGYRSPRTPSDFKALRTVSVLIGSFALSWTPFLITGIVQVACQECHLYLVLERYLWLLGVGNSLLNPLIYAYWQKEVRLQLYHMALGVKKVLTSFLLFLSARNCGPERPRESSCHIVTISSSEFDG
- protocol notes: AlphaScreen cAMP assay in Min-6/hGPR119 cells (GPR119 activation, intracellular cAMP)
- cond: MIN6 cells stably transfected with human GPR119; 45 minutes' incubation at RT; AlphaScreen cAMP Assay Kit
Structures can show the parent of a compound that is named as a salt.
Exam item: assign TRUE to entries whose EC50 is below 0.5 µM and FALSE to entries at or above 0.5 µM. Note that a value of exactly 0.5 µM receives FALSE.

Use the examples below as a reference point.
CCC1CC(=O)NN=C1c1ccc2nc(-c3ccc(OCC(C)N4CCCC4)cc3)oc2c1 (stereo not drawn) [Example 209] = TRUE
CCC1CC(=O)NN=C1c1ccc2nc(-c3ccc(OC4CCNCC4)cc3)oc2c1 (stereo not drawn) [Example 72, hydrochloride] = FALSE
CCC1CC(=O)NN=C1c1ccc2nc(-c3ccc(OCCCN4CCCCC4)cc3)oc2c1 (stereo not drawn) [Example 161, HCl] = TRUE
O=c1ccc(-c2ccc3nc(-c4cccs4)oc3c2)n[nH]1 [Example 257] = TRUE
CCC1CC(=O)NN=C1c1ccc2nc(-c3ccc(OCC(=O)NC)cc3)oc2c1 (stereo not drawn) [Example 43] = FALSE

Now consider the entry below.
Please let me know if CCC1CC(=O)NN=C1c1ccc2nc(-c3ccc(OC4CCCC4)cc3)oc2c1 (stereo not drawn) [Example 176] shows EC50 below 0.5 µM. TRUE

* * *

- system under test: human GPR119 (Homo sapiens (Human), UniProt Q8TDV5)
- protocol notes: AlphaScreen cAMP assay in Min-6/hGPR119 cells (GPR119 activation, intracellular cAMP)
- cond: MIN6 cells stably transfected with human GPR119; 45 minutes' incubation at RT; AlphaScreen cAMP Assay Kit
- Method: The compounds of formula I according to the invention are GPR119 agonists. The effect of the compounds on the activation of GPR119 and on the stimulation of intracellular cAMP concentration is determined using the AlphaScreen cAMP Assay Kit (Cat. No. #6760625R) made by PerkinElmer. MIN6 cells [Miyazaki J et al. Endocrinology. 1990 July; 127(1):126-32] were stably transfected with an expression vector for human GPR119 cDNA (Acc. No. NP_848566). […]
Items are presented alongside their recorded pEC50.
Lab note: report pEC50 as minus log10 of the concentration in molar units, number only.

Solved entries (count: 2):
CC[C@@H]1CC(=O)NN=C1c1ccc2nc(-c3ccc(OCC(C)N4CCCCC4)cc3)oc2c1 (some centres unmarked) = 7.14
CC1CC(=O)NN=C1c1ccc2nc(-c3cccc(C#N)c3)oc2c1 (centres unmarked) = 6.04

For CCC1CC(=O)NN=C1c1ccc2nc(-c3ccc(OCc4cnco4)cc3)oc2c1 (centres unmarked) , what is its reported pEC50? 6.49

For CCC1CC(=O)NN=C1c1ccc2nc(-c3ccc(OCCCN(C)C)cc3)oc2c1 (centres unmarked) , what is its reported pEC50? 6.26

For O=C1NCC(c2ccc3nc(-c4ccccc4)oc3c2)=NN1 , what is its reported pEC50? 6.40

For O=C1NN=C(c2ccc3nc(-c4ccc(CN5CCCCC5)cc4)oc3c2)C2CC12 (centres unmarked) , what is its reported pEC50? 6.15

For CC1CC(=O)NN=C1c1ccc2nc(-c3cccc(O)c3)oc2c1 (centres unmarked) , what is its reported pEC50? 6.05

* * *

- system under test: UniProt:Q8TDV5
- protocol notes: AlphaScreen cAMP assay in Min-6/hGPR119 cells (GPR119 activation, intracellular cAMP)
- cond: MIN6 cells stably transfected with human GPR119; 45 minutes' incubation at RT; AlphaScreen cAMP Assay Kit
Items are presented alongside their recorded pEC50.
Lab note: report pEC50 as minus log10 of the concentration in molar units, number only.

For CC[C@@H]1CC(=O)NN=C1c1ccc2nc(-c3ccc(OC(C)C)cc3)oc2c1 [Example 193] , what is its reported pEC50? 7.52

* * *

- system under test: human GPR119 (Homo sapiens (Human))
- protocol notes: AlphaScreen cAMP assay in Min-6/hGPR119 cells (GPR119 activation, intracellular cAMP)
- cond: MIN6 cells stably transfected with human GPR119; 45 minutes' incubation at RT; AlphaScreen cAMP Assay Kit
quantity kind: EC50 (nM)
Please give a number only; it is taken to be in nM.

Solved entries (count: 4):
CCC[C@H]1C(=O)NN=C(c2ccc3nc(-c4cc(C)oc4C)oc3c2)[C@@H]1C (relative stereo) = 127
CC1CC(=O)NN=C1c1ccc2nc(N3CCNCC3)oc2c1 (centres unmarked) = 9390
Cc1ccc(-c2nc3ccc(C4=NNC(=O)C5CC45)cc3o2)cc1C (centres unmarked) = 264
CCC1CC(=O)NN=C1c1ccc2nc(-c3ccc(OCc4ccccc4)cc3)oc2c1 (centres unmarked) = 70

Lab request: please report EC50 under test system human GPR119 (Homo sapiens (Human)) for CC[C@H]1C(=O)NN=C(c2ccc3nc(-c4ccccc4)oc3c2)[C@H]1C 2590

* * *

- system under test: UniProt Q8TDV5
- protocol notes: AlphaScreen cAMP assay in Min-6/hGPR119 cells (GPR119 activation, intracellular cAMP)
- cond: MIN6 cells stably transfected with human GPR119; 45 minutes' incubation at RT; AlphaScreen cAMP Assay Kit
Exam item: assign Condition met to entries whose EC50 is below 300 nM and Condition not met to entries at or above 300 nM. Note that a value of exactly 300 nM receives Condition not met.

CC1CC(=O)NN=C1c1ccc2nc(N3CCSCC3)oc2c1 (stereo not shown) = Condition not met
CCC1CC(=O)NN=C1c1ccc2nc(-c3ccc(OCCOC)cc3)oc2c1 (stereo not shown) = Condition met
CO[C@H]1CC(=O)NN=C1c1ccc2nc(-c3ccccc3)oc2c1 = Condition met
CC[C@H]1CC(=O)NN=C1c1ccc2nc(-c3ccc(OCCN(C(C)C)C(C)C)cc3)oc2c1 = Condition not met
CCC1CC(=O)NN=C1c1ccc2nc(-c3ccc(OC4CCOC4)cc3)oc2c1 (stereo not shown) = Condition met
CCC1CC(=O)NN=C1c1ccc2nc(-c3ccc(Oc4ccccc4)cc3)oc2c1 (stereo not shown) = Condition met

Please let me know if CCC1CC(=O)NN=C1c1ccc2nc(-c3ccc(OCc4ncccn4)cc3)oc2c1 (stereo not shown) shows EC50 below 300 nM. Condition met

Please let me know if CCC1CC(=O)NN=C1c1ccc2nc(-c3ccc(OCc4ccccn4)cc3)oc2c1 (stereo not shown) shows EC50 below 300 nM. Condition met

Please let me know if CCC1CC(=O)NN=C1c1ccc2nc(-c3ccc(OC[C@@H]4CCCN4C(C)C)cc3)oc2c1 (stereo partly shown) shows EC50 below 300 nM. Condition met

Please let me know if CCC1CC(=O)NN=C1c1ccc2nc(-c3ccc(OCC(=O)O)cc3)oc2c1 (stereo not shown) shows EC50 below 300 nM. Condition not met

Please let me know if CCC1CC(=O)NN=C1c1ccc2nc(-c3ccc(OCCN4C[C@H]5CC[C@@H]4C5)cc3)oc2c1 (stereo partly shown) shows EC50 below 300 nM. Condition not met

Please let me know if CCC[C@@H]1C(=O)NN=C(c2ccc3nc(-c4ccc(OCCN5CCCCC5)cc4)oc3c2)[C@H]1C (stereo in doubt) shows EC50 below 300 nM. Condition met

* * *

Items are presented alongside their recorded EC50.
- system under test: human GPR119 (Homo sapiens (Human), UniProt Q8TDV5)
- protocol notes: AlphaScreen cAMP assay in Min-6/hGPR119 cells (GPR119 activation, intracellular cAMP)
- cond: MIN6 cells stably transfected with human GPR119; 45 minutes' incubation at RT; AlphaScreen cAMP Assay Kit
Please give a number only; it is taken to be in nM.

Solved entries (count: 3):
CCC[C@@H]1C(=O)NN=C(c2ccc3nc(-c4ccc(OC(C)C)cc4)oc3c2)[C@H]1C (relative stereo) = 37
CCC1CC(=O)NN=C1c1ccc2nc(-c3ccc(/C=C/c4ccccc4)cc3)oc2c1 (stereo not shown) = 384
COc1ccc(-c2nc3ccc(C4=NNC(=O)CC4C)cc3o2)cc1 (stereo not shown) = 94

We now examine a further molecule.
Lab request: please report EC50 under test system human GPR119 (Homo sapiens (Human), UniProt Q8TDV5) for CCC[C@@H]1C(=O)NN=C(c2ccc3nc(-c4ccc(O)cc4)oc3c2)[C@H]1C 962

* * *

- system under test: UniProt:Q8TDV5
- protocol notes: AlphaScreen cAMP assay in Min-6/hGPR119 cells (GPR119 activation, intracellular cAMP)
- cond: MIN6 cells stably transfected with human GPR119; 45 minutes' incubation at RT; AlphaScreen cAMP Assay Kit
quantity kind: pEC50
Lab note: report pEC50 as minus log10 of the concentration in molar units, number only.

Solved entries (count: 5):
CCC1CC(=O)NN=C1c1ccc2nc(-c3cccc(OCCN(CC)C(C)C)c3)oc2c1 (stereo not shown) = 6.08
CC1CC(=O)NN=C1c1ccc2nc(-c3cccc(OCc4ccccc4)c3)oc2c1 (stereo not shown) = 6.71
CC[C@@H]1CC(=O)NN=C1c1ccc2nc(-c3ccc(N(C)C)cc3)oc2c1 = 7.39
CCC1CC(=O)NN=C1c1ccc2nc(-c3ccc(OCCN(C(C)C)C(C)C)cc3)oc2c1 (stereo not shown) = 7.43
CC[C@@H]1CC(=O)NN=C1N1CCc2nc(-c3ccccc3)oc2C1 = 6.88

For CCC1CC(=O)NN=C1c1ccc2nc(-c3ccc(OC[C@@H]4CCCN4C(=O)OC(C)(C)C)cc3)oc2c1 (stereo partly shown) , what is its reported pEC50? 7.33

For CCC1NC(=O)NN=C1c1ccc2nc(-c3ccccc3)oc2c1 (stereo not shown) , what is its reported pEC50? 6.01

For CC1CC(=O)NN=C1c1ccc2nc(-c3ccc(N)nc3)oc2c1 (stereo not shown) , what is its reported pEC50? 5.85
